system: B-cell proliferation (LPS); assay: Lymphocyte proliferation test, B-cell proliferation stimulated with LPS; type: cell-based, Balb/c mice; conditions: concentration without any cytotoxicity; screened at 10, 1 and 0.1 μm
Values of inhibiting rate to B-cell proliferation (LPS) greater than or equal to 50% map to label 1; values below map to label 0.

In plain terms: is recorded inhibiting rate to B-cell proliferation (LPS) at least 50% for CC1CCC2C(C)C(OCC(O)CN3CCCCC3)OC3OC4(C)CCC1C32OO4 (stereo not drawn) ?
label 0

In plain terms: is recorded inhibiting rate to B-cell proliferation (LPS) at least 50% for CC1CCC2C(C)C(OCC(O)CN)OC3OC4(C)CCC1C32OO4 (stereo not drawn) ?
label 0

In plain terms: is recorded inhibiting rate to B-cell proliferation (LPS) at least 50% for CC1CCC2C(C)C(OCC(O)C(c3ccccc3)N(C)C)OC3OC4(C)CCC1C32OO4 (stereo not drawn) ?
label 0

In plain terms: is recorded inhibiting rate to B-cell proliferation (LPS) at least 50% for CC1CCC2C(C)C(OCCN)OC3OC4(C)CCC1C32OO4 (stereo not drawn) ?
label 1
